Biological target: T1, aggregated synthetic Aβ1-42 (human, UniProt P05067 672-713)
T1 construct: domain: Aβ1-42; Synthetic peptide, aggregated, coated for ELISA; also called 凝集Aβ1−42; Aβ(1-42) aggregate
Test: quantitative Aβ(1-42) aggregate binding assay, COS conditioned medium

binder	binding result
humanized 12A11 antibody, version 6.3 (antibody, V domains shown, Variable regions only; also called h12A11v6.3; バージョン6.3) VH: QVQLVESGGGVVQPGRSLRLSCAFSGFTLSTSGMSVGWIRQAPGKGLEWLAHIWWDDDKYYNPSLKSRFTISKDTSKNTLYLQMNSLRAEDTAVYYCARRTTTADYFAYWGQGTTVTVSS VL: DVVMTQSPLSLPVTPGEPASISCRSSQSIVHSNGNTYLEWYLQKPGQSPQLLIYKVSNRFSGVPDRFSGSGSGTDFTLKISRVEAEDVGVYYCFQSSHVPLTFGQGTKLEIK	binds
humanized 12A11 antibody, version 6.4 (antibody, V domains shown, Variable regions only; also called h12A11v6.4; バージョン6.4) VH: QVQLVESGGGVVQPGRSLRLSCAFSGFSLSTSGMSVGWIRQAPGKGLEWVAHIWWDDDKYYNPSLKSRFTISKDTSKNTLYLQMNSLRAEDTAVYYCARRTTTADYFAYWGQGTTVTVSS VL: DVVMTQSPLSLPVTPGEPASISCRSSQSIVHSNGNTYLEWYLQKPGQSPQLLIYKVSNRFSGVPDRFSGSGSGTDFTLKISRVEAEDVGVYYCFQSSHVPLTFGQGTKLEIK	binds
humanized 12A11 antibody, version 5.3 (antibody, V domains shown, Variable regions only; also called h12A11v5.3; バージョン5.3) VH: QVQLVESGGGVVQPGRSLRLSCAFSGFTLSTSGMSVGWIRQAPGKGLEWLAHIWWDDDKYYNPSLKSRLTISKDTSKNTLYLQMNSLRAEDTAVYYCARRTTTADYFAYWGQGTTVTVSS VL: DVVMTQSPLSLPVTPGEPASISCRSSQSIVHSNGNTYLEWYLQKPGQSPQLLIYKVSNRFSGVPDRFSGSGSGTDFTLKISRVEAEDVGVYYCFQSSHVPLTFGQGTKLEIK	binds
